MEASUREMENT_TARGET: T1, Recombinant hIL-36R protein (Acrobio, Cat #IL2-H52H6) (human, UniProt Q9HB29 20-335)
T1 construct: Bought soluble protein; also called recombinant human IL-36R protein
T1 sequence: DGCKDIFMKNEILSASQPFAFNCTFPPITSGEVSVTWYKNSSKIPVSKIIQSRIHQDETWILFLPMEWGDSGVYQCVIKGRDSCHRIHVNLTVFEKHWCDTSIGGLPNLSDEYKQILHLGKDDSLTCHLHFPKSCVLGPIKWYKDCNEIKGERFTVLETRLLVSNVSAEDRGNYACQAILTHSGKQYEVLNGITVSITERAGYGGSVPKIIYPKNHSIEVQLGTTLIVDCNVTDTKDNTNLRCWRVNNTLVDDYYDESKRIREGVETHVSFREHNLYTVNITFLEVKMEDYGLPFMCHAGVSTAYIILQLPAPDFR
TEST_SUMMARY: BLI (Gator)
MEASURED_PROPERTY: log10(kon) (log10 of the value in M⁻¹ s⁻¹)
Hello, just confirming the data are log10 of kon with units of M⁻¹ s⁻¹.

### Prompt Consider the binder 5F7-2a6 (antibody, human IgG4 S228P, kappa, V domains shown) VH: EVQLVESGGGLVKPGGSLRLSCAASGFDFTDYYMNWVRQAPGKGLEWVALIRNKAAGYTIYYSAPVKGRFTISRDDSKSTLYLQMNSLKTEDTAVYYCVRDMTIYDGYYVDYALDYWGQGTLVTVSS VL: DIVMTQSPSSVSASVGDRVTITCRASRNINIWLSWYQQKPGKAPKLFIYKASNLHTGVPSRFSGSGSGTDFTLTISSLQPEDFATYYCLQSQSYPLTFGQGTKLEIKR and give its measured log10(kon).
### Response 4.60

### Prompt Name the reported log10(kon) value associated with the binder 5F7-2c4 (antibody, human IgG4 S228P, kappa, V domains shown) VH: EVQLVESGGGLVKPGGSLRLSCAASGFAFTDYYLRWVRQAPGKGLEWVALIRNKAAGYTIYYSAPVKGRFTISRDDSKSTLYLQMNSLKTEDTAVYYCVRDMTIYDGYYVDYALDYWGQGTLVTVSS VL: DIVMTQSPSSVSASVGDRVTITCRASRNINIWLSWYQQKPGKAPKLFIYKASNLHTGVPSRFSGSGSGTDFTLTISSLQPEDFATYYCLQSQSYPLTFGQGTKLEIKR
### Response 2.31

### Prompt Value lookup for log10(kon); key = 5F7-2d3 (antibody, human IgG4 S228P, kappa, V domains shown) VH: EVQLVESGGGLVKPGGSLRLSCAASGFNFTDYYMNWVRQAPGKGLEWVALIRNKAAGYTIYYSAPVKGRFTISRDDSKSTLYLQMNSLKTEDTAVYYCVRDMTIYDGYYVDYALDYWGQGTLVTVSS VL: DIVMTQSPSSVSASVGDRVTITCRASRNINIWLSWYQQKPGKAPKLFIYKASNLHTGVPSRFSGSGSGTDFTLTISSLQPEDFATYYCLQSQSYPLTFGQGTKLEIKR
### Response 4.56

### Prompt Fill in the blank: the reported log10(kon) of 5F7-2a1 (antibody, human IgG4 S228P, kappa, V domains shown) VH: EVQLVESGGGLVKPGGSLRLSCAASGFDFTDYYMHWVRQAPGKGLEWVALIRNKAAGYTIYYSAPVKGRFTISRDDSKSTLYLQMNSLKTEDTAVYYCVRDMTIYDGYYVDYALDYWGQGTLVTVSS VL: DIVMTQSPSSVSASVGDRVTITCRASRNINIWLSWYQQKPGKAPKLFIYKASNLHTGVPSRFSGSGSGTDFTLTISSLQPEDFATYYCLQSQSYPLTFGQGTKLEIKR is ____.
### Response 4.51

### Prompt Give its log10(kon) value. Item: 5F7-2h1 (antibody, human IgG4 S228P, kappa, V domains shown) VH: EVQLVESGGGLVKPGGSLRLSCAASGYAFTDYYMNWVRQAPGKGLEWVALIRNKAAGYTIYYSAPVKGRFTISRDDSKSTLYLQMNSLKTEDTAVYYCVRDMTIYDGYYVDYALDYWGQGTLVTVSS VL: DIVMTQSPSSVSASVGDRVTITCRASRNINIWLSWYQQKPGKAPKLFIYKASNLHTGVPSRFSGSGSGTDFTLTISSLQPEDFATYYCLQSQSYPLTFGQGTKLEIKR
### Response 4.61

### Prompt Item 5F7-2g10 (antibody, human IgG4 S228P, kappa, V domains shown) VH: EVQLVESGGGLVKPGGSLRLSCAASGFAFTDYYLSWVRQAPGKGLEWVALIRNKAAGYTIYYSAPVKGRFTISRDDSKSTLYLQMNSLKTEDTAVYYCVRDMTIYDGYYVDYALDYWGQGTLVTVSS VL: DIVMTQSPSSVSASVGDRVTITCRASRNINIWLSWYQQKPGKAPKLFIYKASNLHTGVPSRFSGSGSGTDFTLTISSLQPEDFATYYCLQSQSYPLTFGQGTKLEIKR has what recorded log10(kon)?
### Response 4.46
